Data origin, for the record: paper PMC10023679

assay: in vitro; type: in vitro ADME; conditions: PAMPA
Non-standard residues stand in square brackets, D forms with d. Residues, ends and D or L forms follow the SMILES beside them. Hpla = O=C(O)[C@@H](O)Cc1ccc(O)cc1; Hica(2S) = CC(C)C[C@H](O)C(=O)O
property.measured: Papp (×10⁻⁶ cm/s)

(A) CC(C)C[C@@H]1NC(=O)[C@H](Cc2ccc(O)cc2)OC(=O)[C@H]2CCCN2C(=O)[C@H](CC(C)C)NC(=O)[C@H](CC(C)C)NC(=O)[C@@H](CC(C)C)NC1=O [DP1] (cyclo(LL[dP][Hpla]L[dL]))
(B) CC(C)C[C@@H]1NC(=O)[C@H](Cc2ccc(O)cc2)NC(=O)[C@H]2CCCN2C(=O)[C@H](CC(C)C)OC(=O)[C@H](CC(C)C)NC(=O)[C@@H](CC(C)C)NC1=O [DP5] (cyclo(L[dL]L[Hica(2S)][dP]Y))
(C) CC(C)C[C@@H]1NC(=O)[C@@H](CC(C)C)NC(=O)[C@H](CO)NC(=O)[C@H](Cc2ccccc2)NC(=O)[C@H]2CCCN2C(=O)[C@H](CC(C)C)NC1=O [CP1-Y1F-L2S] (cyclo(FS[dL]LL[dP]))
Exam item: Rank the listed compounds, smallest Papp first and largest last. Sort the labels as requested; that list is your answer.
Marked response: C, A, B

* * *

assay: Caco-2 assay (permeability across cell monolayers); format: in vitro ADME; settings: Caco-2, pH 7.4, Inhibitor (–), 1 μM, 2 h incubation; read-out: Efflux ratio, Pe (basolateral-to-apical)/Pe (apical-to-basolateral)
Non-standard residues stand in square brackets, D forms with d. Residues, ends and D or L forms follow the SMILES beside them. Hica(2S) = CC(C)C[C@H](O)C(=O)O
property.measured: efflux ratio
Please reply with the number alone, leaving off any unit.

efflux ratio measured on CC(C)C[C@@H]1NC(=O)[C@@H](CC(C)C)NC(=O)[C@H](CC(C)C)OC(=O)[C@H](Cc2ccc(O)cc2)NC(=O)[C@H]2CCCN2C(=O)[C@H](CC(C)C)NC1=O [DP2] (cyclo(LL[dP]Y[Hica(2S)][dL])) = 27.2

* * *

experiment: Caco-2 assay (permeability across cell monolayers); format: in vitro ADME; details: Caco-2; 1 μM compounds in HBSS (pH 7.4) containing 10 mM HEPES and 1% DMSO, 3 h incubation at 37 °C; read-out: Caco-2 permeability Pa
Non-standard residues stand in square brackets, D forms with d. Residues, ends and D or L forms follow the SMILES beside them. NMeY = CN[C@@H](Cc1ccc(O)cc1)C(=O)O; Hpla = O=C(O)[C@@H](O)Cc1ccc(O)cc1; Hica(2S) = CC(C)C[C@H](O)C(=O)O; NMeL = CN[C@@H](CC(C)C)C(=O)O
property.measured: Papp (×10⁻⁶ cm/s)

Below, 2 molecules whose answers are already recorded.
* CC(C)C[C@@H]1NC(=O)[C@@H](CC(C)C)NC(=O)[C@H](CC(C)C)NC(=O)[C@H](Cc2ccc(O)cc2)N(C)C(=O)[C@H]2CCCN2C(=O)[C@H](CC(C)C)NC1=O [MP1] (cyclo(LL[dP][NMeY]L[dL])) | 0.6
* CC(C)C[C@@H]1NC(=O)[C@H](Cc2ccc(O)cc2)NC(=O)[C@H]2CCCN2C(=O)[C@H](CC(C)C)NC(=O)[C@H](CC(C)C)OC(=O)[C@@H](CC(C)C)NC1=O [DP4] (cyclo(L[dL][Hica(2S)]L[dP]Y)) | 1.2

(A) CC(C)C[C@@H]1NC(=O)[C@H](Cc2ccc(O)cc2)OC(=O)[C@H]2CCCN2C(=O)[C@H](CC(C)C)NC(=O)[C@H](CC(C)C)NC(=O)[C@@H](CC(C)C)NC1=O [DP1] (cyclo(LL[dP][Hpla]L[dL]))
(B) CC(C)C[C@@H]1NC(=O)[C@@H](CC(C)C)NC(=O)[C@H](CC(C)C)N(C)C(=O)[C@H](Cc2ccc(O)cc2)NC(=O)[C@H]2CCCN2C(=O)[C@H](CC(C)C)NC1=O [MP2] (cyclo(LL[dP]Y[NMeL][dL]))
Exam item: Hey, between A and B which has a smaller measured Papp? To answer, give the label that identifies your chosen option.
Marked response: B

* * *

assay: 1,9-decadiene-water distribution coefficient; assay type: physicochemical; conditions: decadiene and aqueous buffer
Non-standard residues stand in square brackets, D forms with d. Residues, ends and D or L forms follow the SMILES beside them. NMeY = CN[C@@H](Cc1ccc(O)cc1)C(=O)O
property.measured: log Ddec/w (1,9-decadiene–water distribution coefficient)

Looking up CC(C)C[C@@H]1NC(=O)[C@@H](CC(C)C)NC(=O)[C@H](CC(C)C)NC(=O)[C@H](Cc2ccc(O)cc2)N(C)C(=O)[C@H]2CCCN2C(=O)[C@H](CC(C)C)NC1=O [MP1] (cyclo(LL[dP][NMeY]L[dL])) , I found its log Ddec/w (1,9-decadiene–water distribution coefficient) recorded as 0.052

* * *

experiment: 1,9-decadiene-water distribution coefficient; type: physicochemical; details: decadiene and aqueous buffer
Non-standard residues stand in square brackets, D forms with d. Residues, ends and D or L forms follow the SMILES beside them. Hpla = O=C(O)[C@@H](O)Cc1ccc(O)cc1
property.measured: log Ddec/w (1,9-decadiene–water distribution coefficient)

(1) CC(C)C[C@@H]1NC(=O)[C@H](Cc2ccc(O)cc2)NC(=O)[C@H]2CCCN2C(=O)[C@H](CC(C)C)NC(=O)[C@H](CC(C)C)NC(=O)[C@@H](CC(C)C)NC1=O [CP1] (cyclo(LL[dP]YL[dL]))
(2) CC(C)C[C@@H]1NC(=O)[C@H](Cc2ccc(O)cc2)OC(=O)[C@H]2CCCN2C(=O)[C@H](CC(C)C)NC(=O)[C@H](CC(C)C)NC(=O)[C@@H](CC(C)C)NC1=O [DP1] (cyclo(LL[dP][Hpla]L[dL]))
Exam item: Hello, I am sorting some records. Could you say if 1 or 2 has the smaller log Ddec/w (1,9-decadiene–water distribution coefficient) value? Please reply using the label of the selected record.
Marked response: 1
(1: −0.74, 2: 1.2)

* * *

test: Caco-2 assay (permeability across cell monolayers); assay type: in vitro ADME; settings: Caco-2, pH 7.4, Inhibitor (+): quinidine, sulfasalazine, benzbromarone; 2 h incubation; read-out: Efflux ratio, Pe (basolateral-to-apical)/Pe (apical-to-basolateral)
Non-standard residues stand in square brackets, D forms with d. Residues, ends and D or L forms follow the SMILES beside them. Hica(2S) = CC(C)C[C@H](O)C(=O)O
property.measured: efflux ratio
No unit in the answer, only the number.

efflux ratio reported for this molecule CC(C)C[C@@H]1NC(=O)[C@@H](CC(C)C)NC(=O)[C@H](CC(C)C)OC(=O)[C@H](Cc2ccc(O)cc2)NC(=O)[C@H]2CCCN2C(=O)[C@H](CC(C)C)NC1=O [DP2] (cyclo(LL[dP]Y[Hica(2S)][dL])) : 1.05

* * *

test: in vitro; type: in vitro ADME; conditions: PAMPA
Non-standard residues stand in square brackets, D forms with d. Residues, ends and D or L forms follow the SMILES beside them. Hica(2S) = CC(C)C[C@H](O)C(=O)O; NMeL = CN[C@@H](CC(C)C)C(=O)O; dHica = CC(C)C[C@@H](O)C(=O)O
property.measured: Papp (×10⁻⁶ cm/s)

Some compounds with recorded Papp:
• CC(C)C[C@@H]1NC(=O)[C@H](Cc2ccc(O)cc2)NC(=O)[C@H]2CCCN2C(=O)[C@H](CC(C)C)N(C)C(=O)[C@H](CC(C)C)NC(=O)[C@@H](CC(C)C)NC1=O [MP5] (cyclo(L[NMeL][dP]YL[dL])) = 1.7
• CC(C)C[C@@H]1NC(=O)[C@@H](CC(C)C)OC(=O)[C@H](CC(C)C)NC(=O)[C@H](Cc2ccc(O)cc2)NC(=O)[C@H]2CCCN2C(=O)[C@H](CC(C)C)NC1=O [DP3] (cyclo(LL[dP]YL[dHica])) = 1.3

(I) CC(C)C[C@@H]1NC(=O)[C@@H](CC(C)C)NC(=O)[C@H](CC(C)C)N(C)C(=O)[C@H](Cc2ccc(O)cc2)NC(=O)[C@H]2CCCN2C(=O)[C@H](CC(C)C)NC1=O [MP2] (cyclo(LL[dP]Y[NMeL][dL]))
(II) CC(C)C[C@@H]1NC(=O)[C@@H](CC(C)C)NC(=O)[C@H](CC(C)C)OC(=O)[C@H](Cc2ccc(O)cc2)NC(=O)[C@H]2CCCN2C(=O)[C@H](CC(C)C)NC1=O [DP2] (cyclo(LL[dP]Y[Hica(2S)][dL]))
Exam item: // compare measured Papp, left I , right II , return larger // caller expects the label of the chosen entry
Marked response: II

* * *

assay: Stability in simulated gastric fluid (SGF); type: in vitro ADME; settings: simulated gastric fluid (SGF) containing pepsin, pH 1.2, 37 °C, at 4 h, read-out: Fraction degraded in SGF
property.measured: metabolised at 4 h, 0.05 μM (%)
Write the value in % as a bare number.

Notebook: C[C@H](N)C(=O)NCC(=O)N[C@H]1CSSC[C@@H](C(=O)O)NC(=O)[C@H](CO)NC(=O)[C@H]([C@@H](C)O)NC(=O)[C@H](Cc2ccccc2)NC(=O)[C@H]([C@@H](C)O)NC(=O)[C@H](CCCCN)NC(=O)[C@H](Cc2c[nH]c3ccccc23)NC(=O)[C@H](Cc2ccccc2)NC(=O)[C@H](Cc2ccccc2)NC(=O)[C@H](CC(N)=O)NC(=O)[C@H](CCCCN)NC1=O [somatostatin, reference compound] , metabolised at 4 h, 0.05 μM read as 98
